This collection of values is drawn from ChEMBL document CHEMBL1152257.

- Target Or System: Nitric oxide synthase, inducible (Mus musculus)
- Sequence (P29477 whole entry): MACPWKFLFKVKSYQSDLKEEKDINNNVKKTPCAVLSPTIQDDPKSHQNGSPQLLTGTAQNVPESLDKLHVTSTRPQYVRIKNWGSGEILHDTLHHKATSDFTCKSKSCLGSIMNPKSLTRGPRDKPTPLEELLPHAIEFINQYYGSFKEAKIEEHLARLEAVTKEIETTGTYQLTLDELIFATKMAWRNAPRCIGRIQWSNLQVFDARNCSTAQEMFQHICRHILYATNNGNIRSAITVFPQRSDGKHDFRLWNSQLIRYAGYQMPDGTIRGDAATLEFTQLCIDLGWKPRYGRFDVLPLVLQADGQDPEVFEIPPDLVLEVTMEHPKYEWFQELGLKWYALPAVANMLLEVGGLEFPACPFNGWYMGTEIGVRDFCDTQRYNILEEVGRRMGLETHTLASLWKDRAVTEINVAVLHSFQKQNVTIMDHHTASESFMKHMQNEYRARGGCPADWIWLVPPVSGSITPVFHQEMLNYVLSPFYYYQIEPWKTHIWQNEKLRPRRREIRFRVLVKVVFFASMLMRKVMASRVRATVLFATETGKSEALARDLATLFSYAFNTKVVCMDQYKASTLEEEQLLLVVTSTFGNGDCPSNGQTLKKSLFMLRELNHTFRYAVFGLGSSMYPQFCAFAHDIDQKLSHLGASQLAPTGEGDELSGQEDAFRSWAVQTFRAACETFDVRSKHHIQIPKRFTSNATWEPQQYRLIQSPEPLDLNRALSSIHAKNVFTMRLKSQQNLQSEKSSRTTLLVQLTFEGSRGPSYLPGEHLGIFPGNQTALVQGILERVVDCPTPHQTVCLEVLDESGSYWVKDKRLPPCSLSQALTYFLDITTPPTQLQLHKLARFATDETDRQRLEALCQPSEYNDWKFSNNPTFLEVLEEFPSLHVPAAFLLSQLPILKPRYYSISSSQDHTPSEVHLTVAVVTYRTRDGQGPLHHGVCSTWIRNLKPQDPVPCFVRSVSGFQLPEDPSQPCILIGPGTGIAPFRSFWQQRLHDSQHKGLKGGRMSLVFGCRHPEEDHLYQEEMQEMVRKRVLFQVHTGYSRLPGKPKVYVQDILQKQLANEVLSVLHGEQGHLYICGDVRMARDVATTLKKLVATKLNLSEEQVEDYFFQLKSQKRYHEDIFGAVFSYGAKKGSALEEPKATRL
- Assay Explanation: Inhibition of iNOS-mediated NO production in LPS-induced mouse BV2 cells
Observable: IC50

molecule=CC1(C)CC[C@]2(C)CC[C@]3(C)[C@H]4CC=C5[C@@H](CC[C@H](O)C5(C)C)[C@]4(C)CC[C@@]3(C)[C@@H]2C1 target_or_system="Nitric oxide synthase, inducible (Mus musculus)" value_observed="> 50 µM"

Inquiry: Give the measured IC50 for CC1(C)CC[C@]2(C)CC[C@]3(C)[C@H]4CC=C5[C@@H](CCC(=O)C5(C)C)[C@]4(C)CC[C@@]3(C)[C@@H]2C1
Reply text: > 50 µM

Inquiry: Give the measured IC50 for CC[C@H](CC[C@@H](C)[C@H]1CC[C@H]2[C@@H]3C[C@@H](O)C4=C[C@@H](O)CC[C@]4(C)[C@H]3CC[C@]12C)C(C)C
Reply text: > 50 µM

Inquiry: Give the measured IC50 for O=C(O)c1cc(O)c(O)c(O)c1
Reply text: > 50 µM

Inquiry: Give the measured IC50 for CC[C@H](CC[C@@H](C)[C@H]1CC[C@H]2[C@@H]3[C@@H](O)C=C4C[C@@H](O)CC[C@]4(C)[C@H]3CC[C@]12C)C(C)C
Reply text: > 50 µM

Inquiry: Give the measured IC50 for CC(=O)O[C@H]1CC[C@]2(C)[C@H]3CC=C4[C@@H]5CC(C)(C)CC[C@]5(C)CC[C@@]4(C)[C@]3(C)CC[C@H]2C1(C)C [beta-AMYRIN ACETATE]
Reply text: > 50 µM

Inquiry: Give the measured IC50 for C[C@@H](O)/C=C/[C@@]1(O)C(C)(C)C[C@H](O)C[C@@]1(C)O
Reply text: > 50 µM
